// data source = patent US20230365537A1

# Study System: human recombinant Aurora A (Homo sapiens (Human), UniProt O14965)
# Sequence (O14965 whole entry): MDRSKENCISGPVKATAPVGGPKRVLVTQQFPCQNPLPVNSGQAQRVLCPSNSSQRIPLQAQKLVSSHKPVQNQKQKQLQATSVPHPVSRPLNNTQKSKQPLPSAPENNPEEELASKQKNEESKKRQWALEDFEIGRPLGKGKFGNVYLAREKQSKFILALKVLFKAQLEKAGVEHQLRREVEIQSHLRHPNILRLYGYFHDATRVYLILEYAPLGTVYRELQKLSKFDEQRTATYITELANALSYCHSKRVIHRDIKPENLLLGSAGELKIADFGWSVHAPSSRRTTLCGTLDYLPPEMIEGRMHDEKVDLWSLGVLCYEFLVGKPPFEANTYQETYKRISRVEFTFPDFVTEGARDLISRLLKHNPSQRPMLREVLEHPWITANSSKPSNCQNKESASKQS
# Test Name: Aurora A Kinase Biochemical Assay (ADP-Glo)
# Settings: ratio of Aurora A IC50 to PLK4 IC50 (selectivity)
Property Name: [Aurora A IC50 (nM)]/[PLK4 IC50 (nM)]

Worked examples, 2 molecules total:
COc1ccc2c(c1)[C@]1(C[C@H]1c1ccc3c(Nc4nccc5c4OCC5)n[nH]c3c1)C(=O)N2: 911.8842
COc1ccc2c(c1)[C@]1(C[C@H]1c1ccc3c(Nc4nc(C#N)nc(N5CCS(=O)(=O)CC5)c4OC)n[nH]c3c1)C(=O)N2: 540.9225

Task: Given COc1ccc2c(c1)[C@]1(C[C@H]1c1ccc3c(Nc4ccc([S+](C)[O-])nc4OC)n[nH]c3c1)C(=O)N2 (single isomer, unassigned) [Example 240] , state its recorded [Aurora A IC50 (nM)]/[PLK4 IC50 (nM)].
Output: 735.1996

Task: Given COc1ccc2c(c1)[C@]1(C[C@H]1c1ccc3c(Nc4ncc(C(F)(F)F)cc4OC)n[nH]c3c1)C(=O)N2 , state its recorded [Aurora A IC50 (nM)]/[PLK4 IC50 (nM)].
Output: 704.9238
